Hello, the source for this data is patent US20030236190A1, in case you need it.

target: T1, Insulin receptor prepared according to Bass et al., 1996: soluble human insulin receptor-immunoglobulin heavy … (human, UniProt P06213 28-956); assay: phage ELISA, vs IGF-1R
T1 construct: extracellular domain; Eu3+-labelled in TR-FRET; also called IR; sIR-Fc; not shown: immunoglobulin heavy chain constant domains that replace the transmembrane and i
No end group written: not given here.
READOUT: IR/IGF-1R Comparison (ratio)
Answer format: numeric, ratio implied, no suffix.

-- ask Look up IR/IGF-1R Comparison: SACQFDCHENFYDWFARQVSGGAAYG (not fully specified (bridges); cysteine pairing not given here) [H2CA-4-H8-IGFR]
-- reply 0.1

-- ask Look up IR/IGF-1R Comparison: PVGVQGFYEGLSRLVLGRGGW [20E22-4-F8-IGFR]
-- reply 0.1

-- ask Look up IR/IGF-1R Comparison: NYRRQVFNGNFYDWFDRQVFSLVTPG [142CA-3-D8-IGFR]
-- reply 0.3

-- ask Look up IR/IGF-1R Comparison: FYVQQWGHENFYDWFDRQVSQSGGAG [H2CA-4-F1-IGFR]
-- reply 0.3
